Reported TGI values are given for each entry in this list.
System: MALME-3M melanoma
Assay: NCI tumour cell line growth inhibition, 48 h
experimentalReadout: TGI

compound	recordedValue
COc1cccc2c1C(=O)c1c(O)c3c(c(O)c1C2=O)C[C@@](O)(C(=O)CO)CC3OC1CC(NCCCC(OC(C)=O)OC(C)=O)C(O)C(C)O1 (some centres not stated)	0.00452 µM
CC1(C)OC(=O)C(Cc2ccccc2)(Cc2ccccc2)C(=O)O1	> 100 µM
Cc1nnc(Sc2nc(C#N)c(C#N)nc2Sc2nnc(C)s2)s1	4.48 µM
O=C(N/N=C/C=C/c1ccc([N+](=O)[O-])o1)c1ccc(C(=O)N/N=C/C=C/c2ccc([N+](=O)[O-])o2)cc1	35.2 µM
COC1C(O)C(C)OC(OC2CCC3(C)C(CCC4C3C(O)CC3(C)C(C5=CC(=O)OC5)CCC43O)C2)C1O (configuration not stated)	0.667 µM
COc1ccc(N(C)c2nc(Cl)nc3cnn(C)c23)cc1	> 100 µM
COc1ccc(/C=C2\c3cc(OC)c(OC)c(OC)c3CC[C@@H]2O)cc1F	> 100 µM
C=CCc1c(O)c(C(=O)/C=C/c2ccccc2)c(OC)c2ccoc12	20.2 µM
COC(=O)C(/C(=N\NC(N)=S)C(=O)Nc1ccccc1[N+](=O)[O-])c1cnc2ccccc2n1 (configuration not stated)	> 100 µM
C[CH2][Sn]([CH2]C)([O]C(=O)c1ccc(OC)c(OC)c1OC)[O]C(=O)c1ccc(OC)c(OC)c1OC	50.6 µM
COc1cc(C=O)cc(O)c1O	> 100 µM
CCO/C(Cc1ccc(Cl)cc1)=N/NC(N)=S	> 100 µM
CCOC(=O)C1(Br)S(=O)(=O)OCCOS1(=O)=O	> 100 µM
O=c1oc2ccc3ccccc3c2cc1-c1nc2ccc([N+](=O)[O-])cc2o1	> 100 µM
CN(CCCn1ccnc1[N+](=O)[O-])CCCn1ccnc1[N+](=O)[O-]	> 100 µM
CC1CN=C(Nc2ccc(F)c(Cl)c2)S1 (configuration not stated)	> 100 µM
O=c1cc(-c2ccccc2)[nH]c2cc(Cl)ccc12	> 100 µM

###

Tested on: HL-60(TB) leukemia
Assay: NCI tumour cell line growth inhibition, 48 h
experimentalReadout: GI50

> print(dat)
                                    compound  recordedvalue
 1  Nc1ncnc2c1ccn2[C@@H]1O[C@H]([C@H](O)c2ccc(Cl)c(F)c2)[C@@H](O)[C@H]1O       > 100 µM
 2    Cc1cc(=O)oc2cc(OC/C=C3\CCC(=O)O3)ccc12        4.47 µM
 3    C#Cc1cccc(NC(=O)c2ccc(NC(=O)CCl)cc2)c1        15.7 µM
 4  COc1ccc(OC)c(/C=C/c2nc(SCc3ccccc3)n(-c3ccc(Cl)cc3)n2)c1        3.14 µM
 5  C/C(=N/N=C(N)N)c1ccc(NC(=O)Nc2ccc(/C(C)=N/N=C(N)N)cc2)cc1        7.89 µM
 6  COc1cc(/C=C2\C[C@H]3[C@@H]4CC=C5C[C@@H](OC(C)=O)CC[C@]5(C)[C@H]4CC[C@]3(C)[C@H]2OC(C)=O)ccc1OCCN1CCCC1        10.3 µM
 7          CC1(C)N=C(N)N=C(N)N1c1cccc(Br)c1       0.491 µM
 8         Cc1cc(Cl)cc(Cc2cc(Cl)cc(C)c2O)c1O        2.94 µM
 9  CC1=C([Se]CC(OC(=O)[C@@H](CO)NC(=O)OC(C)(C)C)C(=O)NCCCCCC(=O)OCc2ccccc2)C(=O)c2ccccc2C1=O (some centres undefined)        2.03 µM
10          CSc1ccc(C(=O)/C=C/c2ccccc2Cl)cc1        19.5 µM
11  Cc1nccc2c3ccc(OCc4cn(-c5ccc(Cl)cc5)nn4)cc3n(CC(C)C)c12       0.886 µM
12  C1C[OH+]CC[OH+]CCNCC[OH+]CC[OH+]CCN1.Cl.[Cl-].[Pt+4]       > 100 µM
13      CN(C)c1ccc(N=C2C=CC(=O)c3ccccc32)cc1        2.15 µM
14  Cc1ccc(S(=O)(=O)Nc2ccc(-c3cc(-c4cccc(F)c4)c(C#N)c(N)n3)cc2)cc1        1.87 µM

###

Reported GI50 values are given for each entry in this list.
Test system: SF-295 CNS
Experiment: NCI tumour cell line growth inhibition, 48 h
experimentalReadout: GI50

> print(dat)
                                   compound  recordedvalue
1  C/C(=N/N=C(N)N)c1ccc(NC(=O)Nc2ccc(/C(C)=N/N=C(N)N)cc2)cc1       12400 nM
2  Cc1ccc(OCC2OC(n3cnc4c(Br)nc(Br)nc43)CC2Oc2ccc(C)cc2)cc1 (stereo not given)        2220 nM
3      COc1ccc(N(C)c2nc(Cl)nc3cnn(C)c23)cc1        < 10 nM
4  Cc1ccc(S(=O)(=O)N2CCc3ccc(O)c4c3C2Cc2ccc3c(c2-4)OCO3)cc1 (stereo not given)        1380 nM
5  COc1ccc(/C=C2\c3cc(OC)c(OC)c(OC)c3CC[C@@H]2O)cc1F         222 nM

###

Reported TGI values are given for each entry in this list.
Test system: HCT-15 colon
Test: NCI tumour cell line growth inhibition, 48 h
experimentalReadout: TGI

> print(dat)
                                   compound  recordedvalue
1  O=C1CC2SC(COCc3ccccc3)(CCN2Cc2ccccc2)C1 (stereo unspecified)       > 100 µM
2  CC1=C2C3OC(=O)C(C)C3CCC2(C)C=CC1=Nc1ccccc1 (stereo unspecified)       > 100 µM
3            CCO/C(Cc1ccc(Cl)cc1)=N/NC(N)=S       > 100 µM
4      COc1ccc(/C(=N\Nc2ccccn2)c2ccccn2)cc1        12.5 µM
5  [N-]=[N+]=CC(=O)CCC(=O)N(c1ccccc1)c1ccccc1        > 10 µM
6  CCOCc1cc(=O)c2c(OC)cc3c(c2o1)CCC(C)(C)O3       > 100 µM

###

System: HOP-92 NSCLC
Assay: NCI tumour cell line growth inhibition, 48 h
experimentalReadout: TGI (µM)

> print(dat)
                                    molecule  unitstring  readoutrelation  recordedvalue
 1  CCCN1CCC(c2ccc(Nc3nc(Nc4cc(F)ccc4C(N)=O)c4cc[nH]c4n3)c(OC)c2)CC1          µM                =          0.126
 2  CCCC(=O)NC(Nc1ccc(S(=O)(=O)Nc2ccc(OC)nn2)cc1)(C(F)(F)F)C(F)(F)F          µM                >            100
 3  CN(C)c1ccc2nc(CC(O)(C(F)(F)F)C(F)(F)F)ccc2c1          µM                >             10
 4  Cc1ccc(NC(=O)OCC(COc2ccc(Cl)cc2Cl)OC(=O)Nc2ccc(C)cc2)cc1 (stereo not given)          µM                >            100
 5  CCN(CC)CCn1c2ccccc2c(=O)c2c(OC)ccc(OC)c21          µM                >            100
 6  COC(=O)C1=C(CCC[C@H](C)O[Si](C)(C)C(C)(C)C)NC(=O)N2[C@@H](CCO)CC[C@H]12          µM                =           28.4
 7  FC(F)(F)c1cc(Nc2ccc3cc(OCCCN4CCOCC4)ccc3n2)ccc1Cl          µM                =           2.97
 8          Nc1ccc(Sc2c3ccccc3nc3ccccc23)cc1          µM                >             38
 9      Cn1c(=O)c(Cl)c(N=[N+]=[N-])c2ccccc21          µM                >            100
10  CCCCCC[C@H](C)NC(=O)c1ccc(Nc2nc3ccccc3c3occc23)cc1          µM                =           50.4
11  Cn1c(N=P(c2ccccc2)(c2ccccc2)c2ccccc2)c([N+](=O)[O-])c(=O)n(C)c1=O          µM                >            100
12        O=c1cc(-c2ccccc2)[nH]c2cc(Cl)ccc12          µM                =           57.5
13  CN(C)c1ccc(/C=C/c2cc(-c3ccccc3)[n+](C)n2-c2ccccc2)cc1          µM                =           16.6
14    C#Cc1cccc(NC(=O)c2ccc(NC(=O)CCl)cc2)c1          µM                =           26.4
15  Cc1cc2nc(N3C(=O)/C(=C/c4ccc(N(C)C)cc4)N=C3c3ccccc3)sc2cc1C          µM                =             53
16  CC1=CCC2CC1NC(=O)CCOCCC(=O)NC2(C)C (stereo not given)          µM                >            100
17  COc1cc2c(cc1C)NC(=O)/C2=C\c1c[nH]c2ccccc12          µM                =           29.9
18  CCN1CCC(O)(c2ccc(O)cc2)C(C(=O)c2ccc(O)cc2)C1 (stereo not given)          µM                =           37.5
19  COc1cc(/C=C2/C(=O)N(C(=O)OCc3ccccc3)C(Cc3cc(OC)c(OC)c(C)c3OC)C(=O)N2Cc2ccccc2)c(OC)c(C)c1OC (stereo not given)          µM                >            100
20   CN(C(=O)c1ccco1)C(=S)N1CCN(c2ccccn2)CC1          µM                >            100

Data provenance: PubChem BioAssay (NCI)
